Recorded values, source paper PMC12811997.

# assay-details: in vitro
# condition-summary: human
Doc: threshold 8 µM (exclusive). Items with CC50 at 3 days beneath it return Condition met; others return Condition not met.

Please review the entries below; each comes with its answer.
• Cl.O=C(Nc1cc(Cl)cc(Cl)c1)Nc1ccc(CN2CCS(=O)(=O)CC2)c(C(F)(F)F)c1 [Compound 68] = Condition met
• COC(=O)C1CN(Cc2ccc(NC(=O)Nc3cc(Cl)cc(Cl)c3)cc2C(F)(F)F)CCO1.Cl (stereo not shown) [Compound 69] = Condition not met
• Cl.NC(=O)C1CN(Cc2ccc(NC(=O)Nc3cc(Cl)cc(Cl)c3)cc2C(F)(F)F)CCO1 (stereo not shown) [Compound 72] = Condition not met
• O=C(Nc1cnc(C(F)(F)F)nc1)Nc1cc(Cl)cc(Cl)c1 [Compound 18] = Condition met
• Cl.O=C(Nc1cc(Cl)cc(Cl)c1)Nc1ccc(CN2CCCC2)c(C(F)(F)F)c1 [Compound 38] = Condition not met
• COC(=O)CNCc1ccc(NC(=O)Nc2cc(Cl)cc(Cl)c2)cc1C(F)(F)F.Cl [Compound 61] = Condition not met
• O=C(Nc1cc(Cl)cc(Cl)c1)Nc1ccc(CN2CCOC(C(=O)[O-])C2)c(C(F)(F)F)c1.[Li+] (stereo not shown) [Compound 71] = Condition not met
• O=C(Nc1ccc(C(F)(F)F)nc1)Nc1cc(Cl)cc(Cl)c1 [Compound 15] = Condition met
• NC(=O)c1ccc(NC(=O)Nc2cc(Cl)cc(Cl)c2)cc1C(F)(F)F [Compound 24] = Condition not met
• Cl.O=C(Nc1cc(Cl)cc(Cl)c1)Nc1ccc(CN2CCOCC2)c(C(F)(F)F)c1 [Compound 39] = Condition not met

Lookup: Confirm or reject: CC50 at 3 days of Cl.O=C1CN(Cc2ccc(NC(=O)Nc3cc(Cl)cc(Cl)c3)cc2C(F)(F)F)CCN1 [Compound 70] lies strictly below 8 µM
Found: Condition not met

Lookup: Determine if Cl.O=C(Nc1cc(Cl)cc(Cl)c1)Nc1ccc(C(F)(F)F)c(CN2CCOCC2)c1 [Compound 47] shows CC50 at 3 days strictly lower than 8 µM.
Found: Condition met
